Sourced from paper PMC4032265

target: α1A adrenergic receptor (Homo sapiens); test: PDSP radioligand binding, α1A; conditions: read-out: % inhibition at 10 µM; single concentration 10 µM
Sequence (P35348 whole entry): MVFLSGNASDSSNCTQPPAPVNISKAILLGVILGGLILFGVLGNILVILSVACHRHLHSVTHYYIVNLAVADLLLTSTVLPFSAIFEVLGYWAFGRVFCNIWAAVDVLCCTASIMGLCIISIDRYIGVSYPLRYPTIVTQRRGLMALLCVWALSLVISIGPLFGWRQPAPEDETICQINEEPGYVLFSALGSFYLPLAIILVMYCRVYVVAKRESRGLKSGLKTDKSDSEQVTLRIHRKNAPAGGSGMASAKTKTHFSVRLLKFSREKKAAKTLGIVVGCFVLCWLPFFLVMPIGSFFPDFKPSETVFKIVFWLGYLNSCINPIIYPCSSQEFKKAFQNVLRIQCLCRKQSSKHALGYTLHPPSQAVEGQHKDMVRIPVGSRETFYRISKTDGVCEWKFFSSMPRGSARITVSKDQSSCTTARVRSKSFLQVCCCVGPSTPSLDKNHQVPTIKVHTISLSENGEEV
Returns Met if the recorded inhibition at 10 µM is greater than or equal to 1%, and Not met otherwise.

INSERT INTO measurements (compound_smiles, classification) VALUES
  ('Fc1ccc(C#Cc2nc(NCc3cccc(Cl)c3)c3nc[nH]c3n2)cc1F', 'Not met'),
  ('Clc1cccc(CNc2nc(Cl)nc3[nH]cnc23)c1', 'Met'),
  ('CNC(=O)[C@@]12C[C@@H]1[C@@H](n1cnc3c(NCc4cccc(Cl)c4)nc(C#Cc4ccccc4Cl)nc31)[C@H](O)[C@@H]2O', 'Met'),
  ('O[C@@H]1[C@H](O)[C@@H]2C[C@@H]2[C@H]1n1cnc2c(NCc3cccc(Cl)c3)nc(C#Cc3ccc(F)c(F)c3)nc21', 'Met'),
  ('CNC(=O)[C@@]12C[C@@H]1[C@@H](n1cnc3c(NCc4cccc(Cl)c4)nc(C#Cc4ccc(F)cc4)nc31)[C@H](O)[C@@H]2O', 'Met'),
  ('CNC(=O)[C@@]12C[C@@H]1[C@@H](n1cnc3c(NC)nc(C#Cc4ccc(F)c(F)c4)nc31)[C@H](O)[C@@H]2O', 'Not met'),
  ('O[C@@H]1[C@H](O)[C@@H]2C[C@@H]2[C@H]1n1cnc2c(NCc3cccc(Cl)c3)ncnc21', 'Met'),
  ('CNC(=O)[C@@]12C[C@@H]1[C@@H](n1cnc3c(NCc4cccc(Cl)c4)nc(Cl)nc31)[C@H](O)[C@@H]2O', 'Met');

---

Biological target: α2A adrenergic receptor (Homo sapiens)
Sequence (P08913 1-465): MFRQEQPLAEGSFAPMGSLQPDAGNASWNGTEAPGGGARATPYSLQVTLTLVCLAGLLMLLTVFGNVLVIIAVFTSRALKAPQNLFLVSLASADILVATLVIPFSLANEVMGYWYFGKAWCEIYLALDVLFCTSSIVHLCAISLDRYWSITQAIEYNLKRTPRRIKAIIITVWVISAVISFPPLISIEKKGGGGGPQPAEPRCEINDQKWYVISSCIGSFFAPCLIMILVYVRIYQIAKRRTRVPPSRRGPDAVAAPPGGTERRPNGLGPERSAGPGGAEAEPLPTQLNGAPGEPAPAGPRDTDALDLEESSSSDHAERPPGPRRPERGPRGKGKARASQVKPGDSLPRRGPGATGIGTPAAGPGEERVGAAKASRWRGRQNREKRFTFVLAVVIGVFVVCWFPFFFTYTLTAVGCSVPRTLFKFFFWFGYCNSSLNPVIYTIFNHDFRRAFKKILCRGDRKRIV
pKi: −log10 of the molar value.
outcome_measure: pKi

INSERT INTO results (compound_smiles, test_system, outcome_measure, numeric_result) VALUES
  ('Fc1ccc(C#Cc2nc(NCc3cccc(Cl)c3)c3nc[nH]c3n2)cc1F', 'α2A adrenergic receptor (Homo sapiens)', 'pKi', 5.66),
  ('CNC(=O)[C@@]12C[C@@H]1[C@@H](n1cnc3c(NCc4cccc(Cl)c4)nc(C#Cc4ccc(F)c(F)c4)nc31)[C@H](O)[C@@H]2O', 'α2A adrenergic receptor (Homo sapiens)', 'pKi', 5.32),
  ('Clc1cccc(CNc2nc(Cl)nc3[nH]cnc23)c1', 'α2A adrenergic receptor (Homo sapiens)', 'pKi', 5.52);

---

Ki data for σ2 receptor (Rattus norvegicus) follow.
outcome_measure: Ki (nM)

INSERT INTO assay_data (compound_smiles, outcome_measure, numeric_result) VALUES
  ('CNC(=O)[C@@]12C[C@@H]1[C@@H](n1cnc3c(NCc4cccc(Cl)c4)nc(C#Cc4ccc(F)c(F)c4)nc31)[C@H](O)[C@@H]2O', 'Ki', 908),
  ('O[C@@H]1[C@H](O)[C@@H]2C[C@@H]2[C@H]1n1cnc2c(NCc3cccc(Cl)c3)nc(C#Cc3ccc(F)c(F)c3)nc21', 'Ki', 2940),
  ('O[C@@H]1[C@H](O)[C@@H]2C[C@@H]2[C@H]1n1cnc2c(NCc3cccc(Cl)c3)ncnc21', 'Ki', 2680);

---

biological target: D1 dopaminergic receptor (Homo sapiens, UniProt P21728); assay: PDSP radioligand binding, D1; settings: read-out: % inhibition at 10 µM; single concentration 10 µM
Sequence (P21728 whole entry): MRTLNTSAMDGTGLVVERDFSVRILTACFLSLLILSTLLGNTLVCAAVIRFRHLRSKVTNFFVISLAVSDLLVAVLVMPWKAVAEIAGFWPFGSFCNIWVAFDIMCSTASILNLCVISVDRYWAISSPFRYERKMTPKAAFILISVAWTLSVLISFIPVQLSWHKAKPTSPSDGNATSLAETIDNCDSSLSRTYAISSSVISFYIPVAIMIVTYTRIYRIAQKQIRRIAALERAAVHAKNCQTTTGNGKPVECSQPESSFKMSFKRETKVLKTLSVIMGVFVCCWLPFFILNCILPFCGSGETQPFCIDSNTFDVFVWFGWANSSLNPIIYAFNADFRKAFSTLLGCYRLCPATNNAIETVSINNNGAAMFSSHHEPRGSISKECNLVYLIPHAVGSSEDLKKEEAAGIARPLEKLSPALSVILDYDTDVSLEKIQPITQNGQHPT
Property: inhibition at 10 µM; scope: individual compounds
outcome_measure: inhibition at 10 µM

INSERT INTO assay_data (compound, test_system, result) VALUES
  ('Clc1cccc(CNc2nc(Cl)nc3[nH]cnc23)c1 [Compound 9]', 'D1 dopaminergic receptor (Homo sapiens, UniProt P21728)', '0%'),
  ('O[C@@H]1[C@H](O)[C@@H]2C[C@@H]2[C@H]1n1cnc2c(NCc3cccc(Cl)c3)ncnc21 [Compound 7]', 'D1 dopaminergic receptor (Homo sapiens, UniProt P21728)', '2%'),
  ('Fc1ccc(C#Cc2nc(NCc3cccc(Cl)c3)c3nc[nH]c3n2)cc1F [Compound 8]', 'D1 dopaminergic receptor (Homo sapiens, UniProt P21728)', '0%'),
  ('CNC(=O)[C@@]12C[C@@H]1[C@@H](n1cnc3c(NCc4cccc(Cl)c4)nc(C#Cc4ccccc4Cl)nc31)[C@H](O)[C@@H]2O [Compound 3]', 'D1 dopaminergic receptor (Homo sapiens, UniProt P21728)', '27%'),
  ('CNC(=O)[C@@]12C[C@@H]1[C@@H](n1cnc3c(NCc4cccc(Cl)c4)nc(Cl)nc31)[C@H](O)[C@@H]2O [Compound 4]', 'D1 dopaminergic receptor (Homo sapiens, UniProt P21728)', '11%'),
  ('O[C@@H]1[C@H](O)[C@@H]2C[C@@H]2[C@H]1n1cnc2c(NC(C3CC3)C3CC3)nc(Cl)nc21 [Compound 10]', 'D1 dopaminergic receptor (Homo sapiens, UniProt P21728)', '0%'),
  ('CNC(=O)[C@@]12C[C@@H]1[C@@H](n1cnc3c(NCc4cccc(Cl)c4)nc(C#Cc4ccc(F)cc4)nc31)[C@H](O)[C@@H]2O [Compound 2]', 'D1 dopaminergic receptor (Homo sapiens, UniProt P21728)', '19%'),
  ('O[C@@H]1[C@H](O)[C@@H]2C[C@@H]2[C@H]1n1cnc2c(NCc3cccc(Cl)c3)nc(C#Cc3ccc(F)c(F)c3)nc21 [Compound 6]', 'D1 dopaminergic receptor (Homo sapiens, UniProt P21728)', '3%'),
  ('CNC(=O)[C@@]12C[C@@H]1[C@@H](n1cnc3c(NC)nc(C#Cc4ccc(F)c(F)c4)nc31)[C@H](O)[C@@H]2O [Compound 5]', 'D1 dopaminergic receptor (Homo sapiens, UniProt P21728)', '0%');

---

target: α2B adrenergic receptor (Homo sapiens); assay: PDSP radioligand binding, α2B; details: read-out: % inhibition at 10 µM; single concentration 10 µM
Sequence (P18089 whole entry): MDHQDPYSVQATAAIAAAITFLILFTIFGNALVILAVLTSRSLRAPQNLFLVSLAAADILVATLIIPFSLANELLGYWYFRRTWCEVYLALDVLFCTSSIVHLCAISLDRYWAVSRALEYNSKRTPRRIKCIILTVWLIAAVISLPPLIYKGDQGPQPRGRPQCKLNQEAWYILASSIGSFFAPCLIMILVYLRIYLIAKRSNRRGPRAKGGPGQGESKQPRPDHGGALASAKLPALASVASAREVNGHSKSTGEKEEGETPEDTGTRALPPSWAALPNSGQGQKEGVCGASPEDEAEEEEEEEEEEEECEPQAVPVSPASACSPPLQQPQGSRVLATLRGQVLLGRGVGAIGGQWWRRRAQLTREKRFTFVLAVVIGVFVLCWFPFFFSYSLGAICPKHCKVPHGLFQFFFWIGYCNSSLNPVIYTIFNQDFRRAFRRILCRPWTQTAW
outcome_measure: inhibition at 10 µM (%)

INSERT INTO assay_data (compound, test_system, outcome_measure, numeric_result) VALUES
  ('O[C@@H]1[C@H](O)[C@@H]2C[C@@H]2[C@H]1n1cnc2c(NCc3cccc(Cl)c3)nc(C#Cc3ccc(F)c(F)c3)nc21 [Compound 6]', 'α2B adrenergic receptor (Homo sapiens)', 'inhibition at 10 µM', 0),
  ('CNC(=O)[C@@]12C[C@@H]1[C@@H](n1cnc3c(NCc4cccc(Cl)c4)nc(C#Cc4ccc(F)cc4)nc31)[C@H](O)[C@@H]2O [Compound 2]', 'α2B adrenergic receptor (Homo sapiens)', 'inhibition at 10 µM', 12),
  ('CNC(=O)[C@@]12C[C@@H]1[C@@H](n1cnc3c(NCc4cccc(Cl)c4)nc(Cl)nc31)[C@H](O)[C@@H]2O [Compound 4]', 'α2B adrenergic receptor (Homo sapiens)', 'inhibition at 10 µM', 21),
  ('Fc1ccc(C#Cc2nc(NCc3cccc(Cl)c3)c3nc[nH]c3n2)cc1F [Compound 8]', 'α2B adrenergic receptor (Homo sapiens)', 'inhibition at 10 µM', 63),
  ('CNC(=O)[C@@]12C[C@@H]1[C@@H](n1cnc3c(NC)nc(C#Cc4ccc(F)c(F)c4)nc31)[C@H](O)[C@@H]2O [Compound 5]', 'α2B adrenergic receptor (Homo sapiens)', 'inhibition at 10 µM', 0);

---

Some compounds, each annotated with its measured inhibition at 10 µM.
molecular target: β2 adrenergic receptor (Homo sapiens, UniProt P07550); experiment: PDSP radioligand binding, β2; conditions: read-out: % inhibition at 10 µM; single concentration 10 µM
Sequence (P07550 whole entry): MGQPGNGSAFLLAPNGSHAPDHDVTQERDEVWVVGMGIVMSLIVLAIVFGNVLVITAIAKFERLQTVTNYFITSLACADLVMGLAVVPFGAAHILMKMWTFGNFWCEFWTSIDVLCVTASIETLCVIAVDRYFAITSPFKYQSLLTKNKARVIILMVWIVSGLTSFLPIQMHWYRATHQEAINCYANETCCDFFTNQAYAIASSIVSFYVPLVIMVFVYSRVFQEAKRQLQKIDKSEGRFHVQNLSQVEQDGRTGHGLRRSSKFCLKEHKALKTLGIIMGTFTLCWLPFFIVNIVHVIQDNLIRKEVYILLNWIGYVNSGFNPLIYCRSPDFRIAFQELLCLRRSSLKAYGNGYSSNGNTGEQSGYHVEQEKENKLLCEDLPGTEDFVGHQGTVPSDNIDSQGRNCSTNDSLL
outcome_measure: inhibition at 10 µM (%)

INSERT INTO measurements (compound, test_system, numeric_result) VALUES
  ('CNC(=O)[C@@]12C[C@@H]1[C@@H](n1cnc3c(NCc4cccc(Cl)c4)nc(C#Cc4ccccc4Cl)nc31)[C@H](O)[C@@H]2O [Compound 3]', 'β2 adrenergic receptor (Homo sapiens, UniProt P07550)', 0),
  ('O[C@@H]1[C@H](O)[C@@H]2C[C@@H]2[C@H]1n1cnc2c(NC(C3CC3)C3CC3)nc(Cl)nc21 [Compound 10]', 'β2 adrenergic receptor (Homo sapiens, UniProt P07550)', 2),
  ('CNC(=O)[C@@]12C[C@@H]1[C@@H](n1cnc3c(NC)nc(C#Cc4ccc(F)c(F)c4)nc31)[C@H](O)[C@@H]2O [Compound 5]', 'β2 adrenergic receptor (Homo sapiens, UniProt P07550)', 2),
  ('CNC(=O)[C@@]12C[C@@H]1[C@@H](n1cnc3c(NCc4cccc(Cl)c4)nc(Cl)nc31)[C@H](O)[C@@H]2O [Compound 4]', 'β2 adrenergic receptor (Homo sapiens, UniProt P07550)', 2),
  ('Fc1ccc(C#Cc2nc(NCc3cccc(Cl)c3)c3nc[nH]c3n2)cc1F [Compound 8]', 'β2 adrenergic receptor (Homo sapiens, UniProt P07550)', 0);
